tested on: immortalized human keratinocytes (HaCaT); assay: LDH cytotoxicity test, keratinocytes; type: cell-based; details: 48 h, 50-150 μg/mL
observation-type: cytotoxicity (LDH), in words

compound: CC(C)[C@@H](CNC(=O)/C=C/c1ccccc1)NC(=O)[C@H](Cc1c[nH]cn1)NC(=O)[C@H](CCCCN)NC(=O)OCc1ccccc1 [Compound A-174]
tested-target: immortalized human keratinocytes (HaCaT)
observation-type: cytotoxicity (LDH), in words
readout-value: no cytotoxicity
//
compound: CC(C)C[C@H](NC(=O)[C@H](CCCNC(=N)N)NC(=O)OCc1ccccc1)C(=O)N[C@H](CN)C(C)C [Compound A-197]
tested-target: immortalized human keratinocytes (HaCaT)
observation-type: cytotoxicity (LDH), in words
readout-value: no cytotoxicity

====

Give measured MBC for each item. Keep answers brief.
tested on: E. faecalis c.i.; test: MIC/MBC broth microdilution, E. faecalis; format: cell-based, Enterococcus faecalis; settings: water additive EtOH
Residues, ends and D or L forms follow the SMILES beside them.

Q: What value of MBC has been recorded for this entry: CC(C)[C@@H](CNC(=O)C(=Cc1ccccc1)c1ccccc1)NC(=O)[C@H](Cc1c[nH]cn1)NC(=O)[C@H](CCCCNC(=N)N)NC(=O)OCc1ccccc1
Result: 256 µg/mL

Q: Query CC(C)C[C@H](NC(=O)[C@H](CCCNC(=N)N)NC(=O)OCc1ccccc1)C(=O)N[C@H](C(=O)NCCc1ccccc1)C(C)C [Compound A-196] (HELM PEPTIDE1{[O=C(OCc1ccccc1)[*:2]].R.L.V.[c1ccc(CCN[*:1])cc1]}$$$$V2.0) next
Result: > 512 µg/mL

====

system: S. mutans c.i.; assay: MIC/MBC broth microdilution, S. mutans; type: cell-based, Streptococcus mutans; settings: water additive DMSO
observation-type: MIC (µg/mL)
Value expressed in µg/mL; do not type the unit.

Q: MIC lookup needed for CC[C@@H](CNC(=O)/C=C/c1ccccc1)NC(=O)[C@H](CC(C)C)NC(=O)[C@H](CCCNC(=N)N)NC(=O)OCc1ccccc1 , thanks.
Result: 4

Q: How about CC(C)[C@@H](CNC(=O)C(=Cc1ccccc1)c1ccccc1)NC(=O)[C@H](CCCNC(=N)N)NC(=O)[C@H](CCCCN)NC(=O)OCc1ccccc1 ?
Result: 32

====

tested on: S. cohnii c.i.; assay: MIC/MBC broth microdilution, S. cohnii; format: cell-based, Staphylococcus cohnii; settings: water additive DMSO
Non-standard residues stand in square brackets, D forms with d. Residues, ends and D or L forms follow the SMILES beside them. *: point of attachment. NHPhenethyl = c1ccc(CCN*)cc1; β3hV = CC(C)[C@H](N)CC(=O)O; Cbz = O=C(OCc1ccccc1)*
Consider the following compounds; for each one, report its MBC.
Express the result in µg/mL but write the number alone.

Q: Requested field: MBC. Item: CC(C)[C@@H](CNC(=O)C(=Cc1ccccc1)c1ccccc1)NC(=O)[C@H](CCCNC(=N)N)NC(=O)[C@H](CCCNC(=N)N)NC(=O)OCc1ccccc1 [Compound A-179]
Result: 32

Q: Then this compound: CC(C)[C@@H](CNC(=O)C(=Cc1ccccc1)c1ccccc1)NC(=O)[C@H](CCCNC(=N)N)NC(=O)[C@H](CCCCNC(=N)N)NC(=O)OCc1ccccc1 [Compound A-192]
Result: 32

Q: What do we get for CC(C)[C@@H](CNC(=O)/C=C/c1ccccc1)NC(=O)[C@H](Cc1c[nH]cn1)NC(=O)[C@H](CCCCN)NC(=O)OCc1ccccc1 [Compound A-174] ?
Result: 256

Q: Item: CC(C)[C@H](NC(=O)[C@H](Cc1c[nH]cn1)NC(=O)[C@H](CCCCN)NC(=O)OCc1ccccc1)C(=O)NCCc1ccccc1 [Compound A-220] (HELM PEPTIDE1{[O=C(OCc1ccccc1)[*:2]].K.H.V.[c1ccc(CCN[*:1])cc1]}$$$$V2.0)
Result: 512

Q: For CC(C)C[C@H](NC(=O)[C@H](CCCCNC(=N)N)NC(=O)OCc1ccccc1)C(=O)N[C@H](CNC(=O)/C=C/c1ccccc1)C(C)C [Compound A-134] then?
Result: 32

Q: // same read-out, input: CC(C)[C@@H](CNC(=O)C(=Cc1ccccc1)c1ccccc1)NC(=O)[C@H](Cc1c[nH]cn1)NC(=O)[C@H](CCCCNC(=N)N)NC(=O)OCc1ccccc1 [Compound A-193]
Result: 256

Q: Same again, this time with CC(C)C[C@H](NC(=O)[C@H](CCCNC(=N)N)NC(=O)OCc1ccccc1)C(=O)N[C@H](CNC(=O)C(=Cc1ccccc1)c1ccccc1)C(C)C [Compound A-164]
Result: 32

Q: What do you get for CC(C)C[C@H](NC(=O)[C@H](CCCNC(=N)N)NC(=O)OCc1ccccc1)C(=O)N[C@H](C(=O)NCCc1ccccc1)C(C)C [Compound A-196] (HELM PEPTIDE1{[O=C(OCc1ccccc1)[*:2]].R.L.V.[c1ccc(CCN[*:1])cc1]}$$$$V2.0) ?
Result: 256

Q: Now the same for CC(C)[C@H](NC(=O)[C@H](CCCNC(=N)N)NC(=O)[C@H](CCCNC(=N)N)NC(=O)OCc1ccccc1)C(=O)NCCc1ccccc1 [Compound A-221] (HELM PEPTIDE1{[O=C(OCc1ccccc1)[*:2]].R.R.V.[c1ccc(CCN[*:1])cc1]}$$$$V2.0)
Result: 256

Q: What do you get for CC(C)C[C@H](NC(=O)[C@H](CCCNC(=N)N)NC(=O)OCc1ccccc1)C(=O)N[C@H](CC(=O)NCCc1ccccc1)C(C)C [Compound A-152] (Cbz-Arg-Leu-[β3hV]-NHPhenethyl) ?
Result: 512

====

tested on: S. intemrdius c.i.; assay: MIC/MBC broth microdilution, S. intermedius; assay type: cell-based, Staphylococcus intermedius; conditions: water additive EtOH
Can you tell me MBC for the items I'm about to list?
State just the number; it will be interpreted in µg/mL.

Q: Which value of MBC has been reported for CC(C)[C@@H](CNC(=O)C(=Cc1ccccc1)c1ccccc1)NC(=O)[C@H](Cc1c[nH]cn1)NC(=O)[C@H](CCCCNC(=N)N)NC(=O)OCc1ccccc1 in the records?
Result: 32

Q: Please do the same for CC(C)[C@@H](CNC(=O)C(=Cc1ccccc1)c1ccccc1)NC(=O)[C@H](CCCNC(=N)N)NC(=O)[C@H](CCCCNC(=N)N)NC(=O)OCc1ccccc1 as well.
Result: 16

Q: Could you do the same for CC(C)C[C@H](NC(=O)[C@H](CCCNC(=N)N)NC(=O)OCc1ccccc1)C(=O)N[C@H](CNC(=O)C(=Cc1ccccc1)c1ccccc1)C(C)C , please?
Result: 16

Q: And for CC(C)[C@@H](CNC(=O)C(=Cc1ccccc1)c1ccccc1)NC(=O)[C@H](CCCNC(=N)N)NC(=O)[C@H](CCCNC(=N)N)NC(=O)OCc1ccccc1 ?
Result: 16

Q: Item: Cc1ccccc1COC(=O)N[C@@H](CCCNC(=N)N)C(=O)N[C@@H](CC(C)C)C(=O)N[C@H](CNC(=O)/C=C/c1ccccc1)C(C)C
Result: 16

Q: Also CC(C)C[C@H](NC(=O)[C@H](CCCCNC(=N)N)NC(=O)OCc1ccccc1)C(=O)N[C@H](CNC(=O)/C=C/c1ccccc1)C(C)C ?
Result: 16

====

system: S. pyogenes ATCC 19615; assay: MIC/MBC broth microdilution, S. pyogenes; assay type: cell-based, Streptococcus pyogenes; conditions: S. pyogenes, water additive DMSO
observation-type: MBC (µg/mL)
Numbers only; they are read as µg/mL.

Q: Any idea what MBC came out for CC(C)C[C@H](NC(=O)[C@H](CCCCNC(=N)N)NC(=O)OCc1ccccc1)C(=O)N[C@H](CNC(=O)/C=C/c1ccccc1)C(C)C on S. pyogenes ATCC 19615?
Result: 16

Q: Ok, now CC(C)[C@@H](CNC(=O)C(=Cc1ccccc1)c1ccccc1)NC(=O)[C@H](CCCNC(=N)N)NC(=O)[C@H](CCCNC(=N)N)NC(=O)OCc1ccccc1
Result: 32

Q: Then this molecule: CC(C)[C@@H](CNC(=O)C(=Cc1ccccc1)c1ccccc1)NC(=O)[C@H](CCCNC(=N)N)NC(=O)[C@H](CCCCNC(=N)N)NC(=O)OCc1ccccc1
Result: 8

====

Tested on: S. pyogenes ATCC 19615
Experiment: MIC/MBC broth microdilution, S. pyogenes
Format: cell-based, Streptococcus pyogenes
Conditions: S. pyogenes, water additive DMSO
Source text: S. aureus (ATCC 29213),S. pyogenes (ATCC 19615),Streptococcus agalactiae (ATCC 27956),Escherichia coli (ATCC 25922),Proteus vulgaris (ATCC 6896),K. pneumoniae (ATCC 700603) andP. aeruginosa (ATCC 10145) reference strains, as well asStaphylococcus cohnii, Enterococcus faecalis, Staphylococcus schleiferi, Staphylococcus intermedius and Streptococcus mutans clinical isolates, were used to test the antibacterial activity of the peptidomimetics. […]
Non-standard residues stand in square brackets, D forms with d. Residues, ends and D or L forms follow the SMILES beside them. *: point of attachment. NHPhenethyl = c1ccc(CCN*)cc1; β3hV = CC(C)[C@H](N)CC(=O)O; Cbz = O=C(OCc1ccccc1)*
observation-type: MBC (µg/mL)
I only need the number, in µg/mL, no unit after it.

Q: I'd like to know its MBC. The compound in question is CC(C)C[C@H](NC(=O)[C@H](CCCNC(=N)N)NC(=O)OCc1ccccc1)C(=O)N[C@H](CNC(=O)C(=Cc1ccccc1)c1ccccc1)C(C)C
Result: 16

Q: Try CC(C)[C@@H](CNC(=O)C(=Cc1ccccc1)c1ccccc1)NC(=O)[C@H](Cc1c[nH]cn1)NC(=O)[C@H](CCCCNC(=N)N)NC(=O)OCc1ccccc1 next.
Result: 16

Q: Try this compound next: CC(C)C[C@H](NC(=O)[C@H](CCCNC(=N)N)NC(=O)OCc1ccccc1)C(=O)N[C@H](CC(=O)NCCc1ccccc1)C(C)C [Compound A-152] (Cbz-Arg-Leu-[β3hV]-NHPhenethyl)
Result: 256

Q: Would you mind doing CC(C)[C@@H](CNC(=O)/C=C/c1ccccc1)NC(=O)[C@H](Cc1c[nH]cn1)NC(=O)[C@H](CCCCN)NC(=O)OCc1ccccc1 as well?
Result: 256

Q: Let us now turn to CC(C)[C@H](NC(=O)[C@H](Cc1c[nH]cn1)NC(=O)[C@H](CCCCN)NC(=O)OCc1ccccc1)C(=O)NCCc1ccccc1 [Compound A-220] (HELM PEPTIDE1{[O=C(OCc1ccccc1)[*:2]].K.H.V.[c1ccc(CCN[*:1])cc1]}$$$$V2.0)
Result: 256

Q: CC(C)[C@H](NC(=O)[C@H](Cc1c[nH]cn1)NC(=O)[C@H](CCCNC(=N)N)NC(=O)OCc1ccccc1)C(=O)NCCc1ccccc1 [Compound A-219] (HELM PEPTIDE1{[O=C(OCc1ccccc1)[*:2]].R.H.V.[c1ccc(CCN[*:1])cc1]}$$$$V2.0) , same question.
Result: 512

Q: Further, for CC(C)C[C@H](NC(=O)[C@H](CCCNC(=N)N)NC(=O)OCc1ccccc1)C(=O)N[C@H](C(=O)NCCc1ccccc1)C(C)C [Compound A-196] (HELM PEPTIDE1{[O=C(OCc1ccccc1)[*:2]].R.L.V.[c1ccc(CCN[*:1])cc1]}$$$$V2.0) ?
Result: 256

Q: Further, for CC(C)[C@@H](CNC(=O)C(=Cc1ccccc1)c1ccccc1)NC(=O)[C@H](CCCNC(=N)N)NC(=O)[C@H](CCCCN)NC(=O)OCc1ccccc1 ?
Result: 8
